# System: SW48 cell line (gastric)
# assay: MTT cytotoxicity assay, SW48
# Assay type: cell-based
# settings: Homo sapiens, SW48; MTT assay, 72 hour incubation; read-out: IC50 value in SW48
testReadout: IC50 (pM)
Return type: number; implicit unit pM.

Form: Entry = COc1cc2c(cc1OCc1cccc(CC(=O)N3C[C@@H](CCl)c4c3cc(O)c3ccccc43)c1)N=C[C@@H]1Cc3ccccc3CN1C2=O | System = SW48 cell line (gastric) | IC50 = ____
4

---

# System: LIM1215 cell line (gastric)
# assay: MTT cytotoxicity assay, LIM1215
# Type: cell-based
# settings: MTT assay, 72 hour incubation; read-out: Cytotoxicity LIM1215 (72 hours)
testReadout: pIC50
Would you please state pIC50, meaning minus log10 of the concentration in mol/L, as a bare number?

Please give the measured pIC50 for this compound: CC(C)(C)OC(=O)N1CC2CC23C1=CC(=O)c1ccccc13 (stereo not shown)
5.54

// data source = patent US20240002379A1
